Tested on: Avian myeloblastosis virus
Experiment: Inhibition of AMV reverse transcriptase activity assessed as incorporation of dTMP in poly(rA)-oligo(dT) at 1000 uM
Parameters: scale not given: the % may be the effect or the level left
The reader will find reported Activity values listed item by item below.
A number alone suffices; assume %.

Past entries and their recorded results:
Oc1cc(O)c2c(c1)O[C@H](c1ccc(O)c(O)c1)[C@H](O)[C@H]2c1c(O)cc(O)c2c1O[C@H](c1ccc(O)c(O)c1)[C@H](O)C2 ... 55
O=C(O[C@H]1O[C@@H]2COC(=O)c3cc(O)c(O)c(O)c3-c3c(cc(O)c(O)c3O)C(=O)O[C@H]2[C@@H]2OC(=O)c3cc(O)c(O)c(O)c3-c3c(cc(O)c(O)c3O)C(=O)O[C@@H]12)c1cc(O)c(O)c(Oc2c(C(=O)O[C@H]3O[C@@H]4COC(=O)c5cc(O)c(O)c(O)c5-c5c(cc(O)c(O)c5O)C(=O)O[C@H]4[C@@H]4OC(=O)c5cc(O)c(O)c(O)c5-c5c(cc(O)c(O)c5O)C(=O)O[C@@H]34)cc(O)c(O)c2O)c1 ... 2
O=C(O)C[C@H]1C(=O)O[C@H]2[C@H](OC(=O)c3cc(O)c(O)c(O)c3)[C@@H](OC(=O)c3cc(O)c(O)c4c3[C@H]1[C@H](O)C(=O)O4)[C@H](OC(=O)c1cc(O)c(O)c(O)c1)O[C@@H]2COC(=O)c1cc(O)c(O)c(O)c1 ... 8
O=C1O[C@H]2[C@@H]3OC(=O)c4cc(O)c(O)c(O)c4-c4c(cc(O)c(O)c4O)C(=O)OC[C@H]2O[C@@H](OC(=O)c2cc(O)c(O)c(O)c2)[C@@H]3OC(=O)c2cc(O)c(O)c3c2[C@@H]2C1=CC(=O)[C@](O)(O3)C2(O)O ... 6
O=C1OC[C@H]2OC(O)[C@@H]3OC(=O)c4cc(O)c(O)c(O)c4-c4c(cc(O)c(O)c4O)C(=O)O[C@H]3[C@@H]2OC(=O)c2cc(O)c(O)c(O)c2-c2c1cc(O)c(O)c2O (stereo partly specified) ... 4

Then there is this molecule:
-- ask Which Activity reading was recorded for the molecule COc1cc2c[n+](C)c3c4cc5c(cc4ccc3c2cc1OC)OCO5 ?
-- reply 1

====

Test system: Avian myeloblastosis virus
Experiment: Inhibition of AMV reverse transcriptase activity assessed as incorporation of dGMP in poly(rC)-oligo(dG) at 1000 uM
Parameters: scale not given: the % may be the effect or the level left
recorded endpoint: Activity (%)
A number alone suffices; assume %.

Past entries and their recorded results:
Oc1cc(O)c2c(c1)O[C@H](c1ccc(O)c(O)c1)[C@H](O)[C@H]2c1c(O)cc(O)c2c1O[C@H](c1ccc(O)c(O)c1)[C@H](O)C2 ... 9
O=C[C@@H]1OC(=O)c2c3c(O)c(O)c(O)c2-c2c(cc(O)c(O)c2O)C(=O)O[C@H]1[C@@H]1OC(=O)c2c(c(O)c(O)c(O)c2-c2c(cc(O)c(O)c2O)C(=O)O[C@H]1COC(=O)c1cc(O)c(O)c(O)c1)O[C@H]1[C@@H]2OC(=O)c4cc(O)c(O)c(O)c4-c4c(cc(O)c(O)c4O)C(=O)O[C@H]2[C@H](OC(=O)c2cc(O)c(O)c(O)c2)O[C@@H]1CO3 ... 20
O=C(O[C@@H]1O[C@@H]2COC(=O)c3cc(O)c(O)c(O)c3-c3c(cc(O)c(O)c3O)C(=O)O[C@H]2[C@H](OC(=O)c2cc(O)c(O)c(O)c2)[C@H]1OC(=O)c1cc(O)c(O)c(O)c1)c1cc(O)c(O)c(Oc2c(C(=O)O[C@H]3O[C@@H]4COC(=O)c5cc(O)c(O)c(O)c5-c5c(cc(O)c(O)c5O)C(=O)O[C@H]4[C@H](OC(=O)c4cc(O)c(O)c(O)c4)[C@H]3OC(=O)c3cc(O)c(O)c(O)c3)cc(O)c(O)c2O)c1 ... 1
O=C(OC[C@H]1O[C@@H](OC(=O)c2cc(O)c(O)c(O)c2)[C@H](OC(=O)c2cc(O)c(O)c(O)c2)[C@@H](OC(=O)c2cc(O)c(O)c(O)c2)[C@@H]1OC(=O)c1cc(O)c(O)c(O)c1)c1cc(O)c(O)c(O)c1 ... 15

-- ask Which Activity reading was recorded for the compound O=C(O[C@@H]1O[C@@H]2COC(=O)c3cc(Oc4c(C(=O)O[C@@H]5O[C@@H]6COC(=O)c7cc(O)c(O)c(O)c7-c7c(cc(O)c(O)c7O)C(=O)O[C@H]6[C@H](OC(=O)c6cc(O)c(O)c(O)c6)[C@H]5OC(=O)c5cc(O)c(O)c(O)c5)cc(O)c(O)c4O)c(O)c(O)c3-c3c(cc(O)c(O)c3O)C(=O)O[C@H]2[C@H](OC(=O)c2cc(O)c(O)c(O)c2)[C@H]1OC(=O)c1cc(O)c(O)c(O)c1)c1cc(O)c(O)c(O)c1 ?
-- reply 2

-- ask Which Activity reading was recorded for the compound O=C(O[C@H]1O[C@@H]2COC(=O)c3cc(O)c(O)c(O)c3-c3c(cc(O)c(O)c3O)C(=O)O[C@H]2[C@@H]2OC(=O)c3cc(O)c(O)c(O)c3-c3c(cc(O)c(O)c3O)C(=O)O[C@@H]12)c1cc(O)c(O)c(Oc2c(C(=O)O[C@H]3O[C@@H]4COC(=O)c5cc(O)c(O)c(O)c5-c5c(cc(O)c(O)c5O)C(=O)O[C@H]4[C@@H]4OC(=O)c5cc(O)c(O)c(O)c5-c5c(cc(O)c(O)c5O)C(=O)O[C@@H]34)cc(O)c(O)c2O)c1 ?
-- reply 6

-- ask Which Activity reading was recorded for the compound O=C1O[C@H]2[C@@H]3OC(=O)c4cc(O)c(O)c(O)c4-c4c(cc(O)c(O)c4O)C(=O)OC[C@H]2O[C@@H](OC(=O)c2cc(O)c(O)c(O)c2)[C@@H]3OC(=O)c2cc(O)c(O)c3c2[C@@H]2C1=CC(=O)[C@](O)(O3)C2(O)O ?
-- reply 12

====

Tested on: Avian myeloblastosis virus
Assay: Inhibition of AMV reverse transcriptase activity assessed as incorporation of dTMP in poly(rA)-oligo(dT) at 100 uM
Design: scale not given: the % may be the effect or the level left
Threshold check on Activity: at or above 20% gives Satisfied, strictly below gives Not satisfied.

O=C1OC[C@H]2OC(O)[C@@H]3OC(=O)c4cc(O)c(O)c(O)c4-c4c(cc(O)c(O)c4O)C(=O)O[C@H]3[C@@H]2OC(=O)c2cc(O)c(O)c(O)c2-c2c1cc(O)c(O)c2O (stereo not given in full) ... Not satisfied
Oc1cc(O)c2c(c1)O[C@H](c1ccc(O)c(O)c1)[C@H](O)[C@H]2c1c(O)cc(O)c2c1O[C@H](c1ccc(O)c(O)c1)[C@H](O)C2 ... Satisfied

-- ask Item O=c1oc2c(O)c(O)cc3c(=O)oc4c(O)c(O)cc1c4c23 with Activity of 20% or above?
-- reply Not satisfied

-- ask Item O=C1O[C@H]2[C@@H]3OC(=O)c4cc(O)c(O)c(O)c4-c4c(cc(O)c(O)c4O)C(=O)OC[C@H]2O[C@@H](OC(=O)c2cc(O)c(O)c(O)c2)[C@@H]3OC(=O)c2cc(O)c(O)c3c2[C@@H]2C1=CC(=O)[C@](O)(O3)C2(O)O with Activity of 20% or above?
-- reply Not satisfied

-- ask Item O=C(O)C[C@@H]1C(=O)O[C@H]2[C@@H]3OC(=O)c4cc(O)c(O)c(O)c4-c4c(cc(O)c(O)c4O)C(=O)OC[C@H]2O[C@@H](OC(=O)c2cc(O)c(O)c(O)c2)[C@@H]3OC(=O)c2cc(O)c(O)c3c2[C@H]1[C@H](O)C(=O)O3 with Activity of 20% or above?
-- reply Satisfied

====

Test system: Avian myeloblastosis virus
Assay: Inhibition of AMV reverse transcriptase activity assessed as incorporation of dTMP in poly(rA)-oligo(dT) at 1 uM
Set-up: scale not given: the % may be the effect or the level left
Threshold check on Activity: at or above 80% gives 1.0, strictly below gives 0.0.

Field: example entries. Status: answers known.
COc1cc2c[n+](C)c3c4cc5c(cc4ccc3c2cc1OC)OCO5 ... 1.0
O=c1oc2c(O)c(O)cc3c(=O)oc4c(O)c(O)cc1c4c23 ... 0.0
O=C(O[C@H]1O[C@@H]2COC(=O)c3cc(O)c(O)c(O)c3-c3c(cc(O)c(O)c3O)C(=O)O[C@H]2[C@@H]2OC(=O)c3cc(O)c(O)c(O)c3-c3c(cc(O)c(O)c3O)C(=O)O[C@@H]12)c1cc(O)c(O)c(Oc2c(C(=O)O[C@H]3O[C@@H]4COC(=O)c5cc(O)c(O)c(O)c5-c5c(cc(O)c(O)c5O)C(=O)O[C@H]4[C@@H]4OC(=O)c5cc(O)c(O)c(O)c5-c5c(cc(O)c(O)c5O)C(=O)O[C@@H]34)cc(O)c(O)c2O)c1 ... 0.0
O=C(O[C@@H]1O[C@@H]2COC(=O)c3cc(O)c(O)c(O)c3-c3c(cc(O)c(O)c3O)C(=O)O[C@H]2[C@H](OC(=O)c2cc(O)c(O)c(O)c2)[C@H]1OC(=O)c1cc(O)c(O)c(O)c1)c1cc(O)c(O)c(Oc2c(C(=O)O[C@H]3O[C@@H]4COC(=O)c5cc(O)c(O)c(O)c5-c5c(cc(O)c(O)c5O)C(=O)O[C@H]4[C@H](OC(=O)c4cc(O)c(O)c(O)c4)[C@H]3OC(=O)c3cc(O)c(O)c(O)c3)cc(O)c(O)c2O)c1 ... 0.0
O=C(O)C[C@H]1C(=O)O[C@H]2[C@H](OC(=O)c3cc(O)c(O)c(O)c3)[C@@H](OC(=O)c3cc(O)c(O)c4c3[C@H]1[C@H](O)C(=O)O4)[C@H](OC(=O)c1cc(O)c(O)c(O)c1)O[C@@H]2COC(=O)c1cc(O)c(O)c(O)c1 ... 0.0

-- ask Item O=C1OC[C@H]2OC(O)[C@@H]3OC(=O)c4cc(O)c(O)c(O)c4-c4c(cc(O)c(O)c4O)C(=O)O[C@H]3[C@@H]2OC(=O)c2cc(O)c(O)c(O)c2-c2c1cc(O)c(O)c2O (some centres not stated) with Activity of 80% or above?
-- reply 0.0

-- ask Item O=C1O[C@H]2[C@@H]3OC(=O)c4cc(O)c(O)c(O)c4-c4c(cc(O)c(O)c4O)C(=O)OC[C@H]2O[C@@H](OC(=O)c2cc(O)c(O)c(O)c2)[C@@H]3OC(=O)c2cc(O)c(O)c3c2[C@@H]2C1=CC(=O)[C@](O)(O3)C2(O)O with Activity of 80% or above?
-- reply 0.0

-- ask Item O=C(O)C[C@@H]1C(=O)O[C@H]2[C@@H]3OC(=O)c4cc(O)c(O)c(O)c4-c4c(cc(O)c(O)c4O)C(=O)OC[C@H]2O[C@@H](OC(=O)c2cc(O)c(O)c(O)c2)[C@@H]3OC(=O)c2cc(O)c(O)c3c2[C@H]1[C@H](O)C(=O)O3 with Activity of 80% or above?
-- reply 1.0

-- ask Item Oc1cc(O)c2c(c1)O[C@H](c1ccc(O)c(O)c1)[C@H](O)[C@H]2c1c(O)cc(O)c2c1O[C@H](c1ccc(O)c(O)c1)[C@H](O)C2 with Activity of 80% or above?
-- reply 1.0

-- ask Item O=C1O[C@@H]2[C@@H](OC(=O)c3cc(O)c(O)c(O)c3-c3c1cc(O)c(O)c3O)[C@H](O)O[C@@H]1COC(=O)c3cc(O)c(O)c(O)c3-c3c(O)c(O)c4oc(=O)c5c(c(O)c(O)c6oc(=O)c3c4c65)-c3c(cc(O)c(O)c3O)C(=O)O[C@@H]21 with Activity of 80% or above?
-- reply 0.0

-- ask Item O=C(O)c1cc(O)c(O)c(O)c1 with Activity of 80% or above?
-- reply 1.0

-- ask Item O=C(OC[C@H]1O[C@@H](OC(=O)c2cc(O)c(O)c(O)c2)[C@H](OC(=O)c2cc(O)c(O)c(O)c2)[C@@H](OC(=O)c2cc(O)c(O)c(O)c2)[C@@H]1OC(=O)c1cc(O)c(O)c(O)c1)c1cc(O)c(O)c(O)c1 with Activity of 80% or above?
-- reply 0.0

-- ask Item O=C1OC[C@H]2O[C@@H](O)[C@H](O)[C@@H](O)[C@@H]2OC(=O)c2cc(O)c(O)c(O)c2-c2c(O)c(O)c3oc(=O)c4c(c(O)c(O)c5oc(=O)c2c3c54)-c2c1cc(O)c(O)c2O with Activity of 80% or above?
-- reply 0.0

-- ask Item O=C(O[C@@H]1O[C@@H]2COC(=O)c3cc(O)c(O)c(O)c3-c3c(cc(O)c(O)c3O)C(=O)O[C@H]([C@H]1O)[C@@H]2O)c1cc(O)c(O)c(O)c1 with Activity of 80% or above?
-- reply 1.0

-- ask Item O=C[C@H](OC(=O)c1cc(O)c(O)c(O)c1)[C@@H](OC(=O)c1cc(O)c(O)c(O)c1)[C@@H]1OC(=O)c2cc(O)c(O)c(O)c2-c2c(cc(Oc3c(C(=O)O[C@@H](C=O)[C@@H](OC(=O)c4cc(O)c(O)c(O)c4)[C@@H]4OC(=O)c5cc(O)c(O)c(O)c5-c5c(cc(O)c(O)c5O)C(=O)OC[C@H]4O)cc(O)c(O)c3O)c(O)c2O)C(=O)OC[C@H]1O with Activity of 80% or above?
-- reply 0.0

-- ask Item O=C(O[C@@H]1O[C@@H]2COC(=O)c3cc(Oc4c(C(=O)O[C@@H]5O[C@@H]6COC(=O)c7cc(O)c(O)c(O)c7-c7c(cc(O)c(O)c7O)C(=O)O[C@H]6[C@H](OC(=O)c6cc(O)c(O)c(O)c6)[C@H]5OC(=O)c5cc(O)c(O)c(O)c5)cc(O)c(O)c4O)c(O)c(O)c3-c3c(cc(O)c(O)c3O)C(=O)O[C@H]2[C@H](OC(=O)c2cc(O)c(O)c(O)c2)[C@H]1OC(=O)c1cc(O)c(O)c(O)c1)c1cc(O)c(O)c(O)c1 with Activity of 80% or above?
-- reply 0.0

-- ask Item O=C[C@@H]1OC(=O)c2c3c(O)c(O)c(O)c2-c2c(cc(O)c(O)c2O)C(=O)O[C@H]1[C@@H]1OC(=O)c2c(c(O)c(O)c(O)c2-c2c(cc(O)c(O)c2O)C(=O)O[C@H]1COC(=O)c1cc(O)c(O)c(O)c1)O[C@H]1[C@@H]2OC(=O)c4cc(O)c(O)c(O)c4-c4c(cc(O)c(O)c4O)C(=O)O[C@H]2[C@H](OC(=O)c2cc(O)c(O)c(O)c2)O[C@@H]1CO3 with Activity of 80% or above?
-- reply 0.0
